# Test system: HepG2
# assay-method-text: cell viability relative to DMSO; higher = less toxic
# condition: 72 h; 1 nM
readout-label: cell viability (%)
Report as a plain number; the unit % is understood.

[[record]]
compound = "C=C[C@]1(C)C[C@@H](OC(=O)CS[C@@H]2C[C@H]3CC[C@@H](C2)N3C)[C@]2(C)[C@H](C)CC[C@]3(CCC(=O)[C@H]32)[C@@H](C)[C@@H]1O"
numeric_value = 96.9


cell viability lookup needed for CCc1ccc(Cc2ccc3c(c2)[C@]2(OC3)O[C@H](CO)[C@@H](O)[C@H](O)[C@H]2O)cc1 , thanks.
106

Same for COCCc1ccc(OCC(O)CNC(C)C)cc1 (stereo not drawn)
112

Same for CC(C)OC(=O)c1cc2c(OC[C@@H](O)CNC(C)(C)C)cccc2[nH]1
98.2

Same for CCCc1c(-c2ccc(O)cc2)nn(-c2ccc(O)cc2)c1-c1ccc(O)cc1
100

Same for Cc1nc[nH]c1CCN
98.1

Same for O[C@@](Cc1nc(CC2(C(F)(F)F)CC2)c[nH]1)(c1ccc(-n2cccn2)cc1)C(F)(F)F
99.5

Same for Cc1nc(-c2ccc(OCC(C)C)c(C#N)c2)sc1C(=O)O
112

Same for CC(=O)c1cc2c(o1)C(=O)c1ccccc1C2=O
102

Same for CC(C)(C)NC(=O)N[C@H](C(=O)N1C[C@H]2[C@@H]([C@H]1C(=O)NC(CC1CCC1)C(=O)C(N)=O)C2(C)C)C(C)(C)C (stereo partly drawn)
102

Same for O=C(Nc1ccc(C(O)(C(F)(F)F)C(F)(F)F)cc1)c1ccc(C(F)(F)F)cc1
114

Same for Clc1ccc(Cn2c(CN3CCCC3)nc3ccccc32)cc1
112

Same for CC[N+](CC)(CC(=O)Nc1c(C)cccc1C)Cc1ccccc1 [denatonium-benzoate]
100

Same for Cc1nccc2[nH]c(=O)ccc12
112

Same for O=c1[nH]c(=O)n([C@H]2CCCO2)cc1F (racemic)
87.2

Same for CCOc1ccc(Cc2cc([C@@H]3O[C@H](SC)[C@@H](O)[C@H](O)[C@H]3O)ccc2Cl)cc1
90.3

Same for CC(=O)NCC(=O)N1[C@@H]2CC[C@H]1c1ccc(Nc3ncc(C(F)(F)F)c(NC4CCC4)n3)cc12
93.8

Same for NC(=O)c1cccc(N)c1 [3-amino-benzamide]
104

Same for CC1=C(CC(=O)O)c2cc(F)ccc2/C1=C\c1ccc([S+](C)[O-])cc1 (stereo not drawn)
117

Same for Cc1cc(C)c(Nc2ccnc(Nc3ccc(C#N)cc3)n2)c(C)c1
107

Same for CN(C)CCc1c[nH]c2ccc(Cn3cncn3)cc12
99

###

# Tested on: Caco-2
# assay-method-text: cell viability relative to DMSO; higher = less toxic
# condition: 72 h; 1 nM
Each item that follows carries a reported cell viability.
Quick note: number first, unit second.

[[record]]
compound = "C[C@]12CC[C@H](O)C[C@H]1CC[C@@H]1[C@@H]2CC[C@]2(C)[C@@H](c3ccc(=O)oc3)C[C@H]3O[C@]132"
readout_label = "cell viability"
result = "96.3%"

[[record]]
compound = "C=CC[C@@H]1/C=C(\\C)C[C@H](C)C[C@H](OC)[C@H]2O[C@@](O)(C(=O)C(=O)N3CCCC[C@H]3C(=O)O[C@H](/C(C)=C/[C@@H]3CC[C@@H](O)[C@H](OC)C3)[C@H](C)[C@@H](O)CC1=O)[C@H](C)C[C@@H]2OC"
readout_label = "cell viability"
result = "99.8%"

[[record]]
compound = "COc1cc2c(cc1O)C(CCc1ccc(Cl)cc1)N(C)CC2 (stereo unspecified)"
readout_label = "cell viability"
result = "102%"

[[record]]
compound = "C[C@]12CCC(=O)C=C1CC[C@@H]1[C@@H]2CC[C@@]2(C)[C@H]1CC[C@]2(O)C(=O)CO"
readout_label = "cell viability"
result = "89.6%"

[[record]]
compound = "O=C(O)C1=CCNCC1"
readout_label = "cell viability"
result = "106%"

[[record]]
compound = "CCC1(c2ccc(N)cc2)CCC(=O)NC1=O (stereo unspecified) [aminoglutethimide]"
readout_label = "cell viability"
result = "109%"

[[record]]
compound = "CC1(C)[C@@H]2C[C@@H](O)[C@@](C)(O)[C@H]1C2 [2,3-cis/exo-pinanediol]"
readout_label = "cell viability"
result = "103%"

[[record]]
compound = "CCOCc1cc(OC)c(-c2ccc(C[C@H](NC(=O)c3c(F)cccc3F)C(=O)O)cc2)c(OC)c1"
readout_label = "cell viability"
result = "99.3%"

[[record]]
compound = "Cn1ncc2c(N3CCOCC3)nc(-c3cccc(O)c3)nc21"
readout_label = "cell viability"
result = "99.9%"

[[record]]
compound = "CC(=O)N(c1onc(C)c1C)S(=O)(=O)c1ccc(N)cc1"
readout_label = "cell viability"
result = "109%"


cell viability lookup needed for Cn1c(COc2ccc(CC3SC(=O)NC3=O)cc2)nc2ccccc2c1=O (stereo unspecified) , thanks.
91.7%

Same for CCCn1c(=O)c2[nH]cnc2n(-c2ccc(Cl)cc2)c1=O
87.3%
